Reported IC50 values for the following molecules.
target: recombinant CD73 (Homo sapiens, UniProt P21589); construct: purchased R&D Systems 5795-EN-010; experiment: Assay 1: Inhibition of the CD73 Enzyme In Vitro; format: biochemical; conditions: soluble recombinant CD73 0.5 nM, AMP 50 μM, 30 minutes at room temperature, Malachite Green, absorbance at 630 nm; read-out: Assay 1 CD73 IC50
Sequence (P21589 27-547 limits assumed): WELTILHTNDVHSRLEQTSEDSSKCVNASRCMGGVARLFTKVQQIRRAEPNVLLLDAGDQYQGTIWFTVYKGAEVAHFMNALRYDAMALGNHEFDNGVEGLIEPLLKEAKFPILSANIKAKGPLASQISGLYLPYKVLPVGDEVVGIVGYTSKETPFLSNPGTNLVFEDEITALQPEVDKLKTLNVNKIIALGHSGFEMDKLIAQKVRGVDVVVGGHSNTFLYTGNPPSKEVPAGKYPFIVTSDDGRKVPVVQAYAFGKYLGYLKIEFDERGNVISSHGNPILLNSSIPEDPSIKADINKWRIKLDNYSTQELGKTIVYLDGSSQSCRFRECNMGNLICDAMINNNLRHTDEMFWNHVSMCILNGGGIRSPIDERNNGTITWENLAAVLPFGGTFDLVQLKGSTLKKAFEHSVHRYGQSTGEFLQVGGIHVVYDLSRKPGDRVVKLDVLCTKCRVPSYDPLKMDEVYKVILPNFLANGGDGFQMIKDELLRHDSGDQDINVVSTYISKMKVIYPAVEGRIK
Give your result in nM as a bare value.

Guide cases for IC50, answers given:
>>> number("Nc1nc(Cl)nc2c1ncn2[C@@H]1O[C@H](CO[C@](Cc2ccc(-c3ccc[nH]c3=O)cc2)(C(=O)O)c2cscn2)[C@@H](O)[C@@H]1F (single isomer, unassigned) [Example 21]")
47
>>> number("Nc1nc(Cl)nc2c1ncn2[C@@H]1O[C@H](COC(Cc2ccc(-c3ccccc3)cc2)(C(=O)O)c2csc(Cl)n2)[C@@H](O)[C@H]1O (mixture of isomers) [Example 27]")
106

Query :: IC50 for Nc1nc(Cl)nc2c1ncn2[C@@H]1O[C@H](CO[C@](Cc2ccc(-c3ccc(C(=O)O)cc3)cc2)(C(=O)O)c2cscn2)[C@@H](O)[C@H]1O (single isomer, unassigned) [Example 2] ?
Result :: 64

Query :: IC50 for Nc1nc(Cl)nc2c1ncn2[C@@H]1O[C@H](COC(Cc2ccc(-c3ccccc3CC(=O)O)cc2)(C(=O)O)c2cscn2)[C@@H](O)[C@@H]1F (mixture of isomers) [Example 18] ?
Result :: 182

Query :: IC50 for CCCNc1nc(Cl)nc2c1ncn2[C@@H]1O[C@H](COC(Cc2ccccc2)(C(=O)O)c2cscn2)[C@@H](O)[C@@H]1F (mixture of isomers) [Example 24] ?
Result :: 1240

Query :: IC50 for Nc1nc(Cl)nc2c1ncn2[C@@H]1O[C@H](CO[C@@](Cc2ccc(C(=O)O)cc2)(C(=O)O)c2cscn2)[C@@H](O)[C@@H]1F (single isomer, unassigned) [Example 16] ?
Result :: 4870

Query :: IC50 for Nc1nc(Cl)nc2c1ncn2[C@@H]1O[C@H](COC(Cc2cccc(C(=O)O)c2)(C(=O)O)c2cscn2)[C@@H](O)[C@@H]1F (mixture of isomers) [Example 17] ?
Result :: 740
